Origin of values: patent US20250041307A1

assay.comment: Parallel artificial membrane permeability assay (PAMPA)
Assay type: in vitro ADME
setup.conditions: PBS, room temperature for 5 hours, 200 uM in donor well
quantity.name: Papp at 5 h, 200 uM

Entry CCC(C)CN1CC2N(Cc3ccc(OC(F)F)cc3)CCC(=O)N2C(CC(=O)O)C1=O (centres unmarked) , Papp at 5 h, 200 uM reported as > 2 ×10⁻⁶ cm/s

Entry CCC(C)CN1CC2N(C(=O)c3ccc(C(F)(F)F)cc3)CCC(=O)N2[C@@H](C)C1=O (some centres unmarked) , Papp at 5 h, 200 uM reported as > 2 ×10⁻⁶ cm/s

Entry CCC(C)CN1CC2N(C(=O)c3ccc(O)nc3)CCC(=O)N2[C@@H](C)C1=O (some centres unmarked) , Papp at 5 h, 200 uM reported as > 10 ×10⁻⁶ cm/s

Entry CCC(C)CN1CC2N(Cc3ccc(O)nc3)CCC(=O)N2[C@@H](C)C1=O (some centres unmarked) , Papp at 5 h, 200 uM reported as > 10 ×10⁻⁶ cm/s

Entry C=CCCN1CC2N(C(=O)c3ccc(C(F)(F)F)cc3)CCC(=O)N2C(C)C1=O (centres unmarked) , Papp at 5 h, 200 uM reported as < 2 ×10⁻⁶ cm/s

Entry CC1C(=O)N(CC2CCC2)CC2N(C(=O)c3ccc(OC(F)F)cc3)CCC(=O)N12 (centres unmarked) , Papp at 5 h, 200 uM reported as > 2 ×10⁻⁶ cm/s

Entry CC1C(=O)N(CCC2CCCC2)CC2N(Cc3ccc(C(F)(F)F)c(Cl)c3)CCC(=O)N12 (centres unmarked) , Papp at 5 h, 200 uM reported as < 2 ×10⁻⁶ cm/s

Entry CCC(C)CN1CC2N(Cc3ccc(OC(F)F)cc3)CCC(=O)N2[C@@H](C)C1=O (some centres unmarked) , Papp at 5 h, 200 uM reported as < 2 ×10⁻⁶ cm/s

----------
This listing pairs molecules with measured Papp at 5 h, 200 uM.
assay.comment: Parallel artificial membrane permeability assay (PAMPA)
Format: in vitro ADME
setup.conditions: PBS, room temperature for 5 hours, 200 uM in donor well

Some molecules with known Papp at 5 h, 200 uM results, for comparison:
> print(dat)
                                   molecule        reported
1  CCC(C)N1CC2N(Cc3ccc(O)cc3)CCC(=O)N2CC1=O (stereo not drawn)  > 2 ×10⁻⁶ cm/s
2  CCC(C)CN1CC2N(Cc3ccc(F)cc3)CCC(=O)N2C(C)C1=O (stereo not drawn)  > 2 ×10⁻⁶ cm/s
3  CCC(C)CN1CC2N(Cc3ccc(OC(F)F)cc3)CCC(=O)N2C(CC(C)C)C1=O (stereo not drawn)  < 2 ×10⁻⁶ cm/s
4  CC1C(=O)N(CCC2CCC2)CC2N(C(=O)c3ccc(C(F)(F)F)cc3)CCC(=O)N12 (stereo not drawn)  < 2 ×10⁻⁶ cm/s
5  CCC(C)CN1CC2N(Cc3ccc(C(F)(F)F)cc3)CCC(=O)N2[C@@H](C)C1=O (stereo partly drawn)  < 2 ×10⁻⁶ cm/s
6  CCC(C)CN1CC2N(C(=O)c3ccc(F)cc3)CCC(=O)N2C(C)C1=O (stereo not drawn)  > 2 ×10⁻⁶ cm/s
7  CCC(C)CN1CC2N(Cc3ccc(O)cc3)CCC(=O)N2[C@@H](C)C1=O (stereo partly drawn)  < 2 ×10⁻⁶ cm/s
8  CCCCN1CC2N(C(=O)c3ccc(OC(F)F)cc3)CCC(=O)N2C(C)C1=O (stereo not drawn)  > 2 ×10⁻⁶ cm/s

Entry CCC(C)CN1CC2N(C(=O)c3ccc(O)cc3)CCC(=O)N2[C@@H](C)C1=O (stereo partly drawn) , Papp at 5 h, 200 uM reported as > 10 ×10⁻⁶ cm/s
